Entries and their Anti-CD28 Fab signal in the presence of CD28 values follow.
# TEST_SYSTEM: T1, Anti-CD28 Fab (SEQ ID NOs: 202, 203)
# T1 construct: biotinylated and captured on neutravidin coated plates in the phage ELISA
# T1 sequence (VH, as listed by the source, chain 1 of 2): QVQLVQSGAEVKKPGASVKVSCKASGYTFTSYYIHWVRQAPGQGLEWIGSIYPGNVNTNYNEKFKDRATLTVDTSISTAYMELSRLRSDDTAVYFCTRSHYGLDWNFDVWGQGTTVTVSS
# T1 sequence (VL, as listed by the source, chain 2 of 2): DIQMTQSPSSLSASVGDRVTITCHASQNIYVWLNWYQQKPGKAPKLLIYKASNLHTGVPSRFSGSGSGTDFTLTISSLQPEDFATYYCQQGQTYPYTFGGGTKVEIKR
# EXPERIMENT_SUMMARY: phage ELISA, Fab on plate, CD28 antigen as competitor
Write the number on its own, no unit after it.

[Q] Query Anti-CD28 Fab signal in the presence of CD28 for YCEGHMGEYMLKCL [Phage-735]
[A] 0.06
